Target: T1, human MIC-1 receptor (hGFRAL, GDNF family receptor alpha like) (human, UniProt Q6UXV0 19-394)
T1 sequence (looked up): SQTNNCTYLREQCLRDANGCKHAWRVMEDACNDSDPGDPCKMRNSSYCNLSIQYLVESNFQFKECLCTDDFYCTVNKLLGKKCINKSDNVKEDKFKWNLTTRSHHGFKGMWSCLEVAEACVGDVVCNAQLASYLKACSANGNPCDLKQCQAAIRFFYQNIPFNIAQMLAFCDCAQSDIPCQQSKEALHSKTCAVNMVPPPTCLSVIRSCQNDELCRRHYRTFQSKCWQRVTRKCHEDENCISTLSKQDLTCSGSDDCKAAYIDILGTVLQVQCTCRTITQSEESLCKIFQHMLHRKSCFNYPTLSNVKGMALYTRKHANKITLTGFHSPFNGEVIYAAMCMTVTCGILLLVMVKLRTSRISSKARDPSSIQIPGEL
Experiment: cell-based or functional assay
QUANTITY NAME: pERK Emax (%)
Return type: number; implicit unit %.

# BINDER, EXPERIMENTAL RESULT
data = [
    ("SPAGSPTSTEEGTSESATPESGPG-MIC-1 (SEQ ID NO: 1) (ligand) SPAGSPTSTEEGTSESATPESGPGARNGDHCPLGPGRCCRLHTVRASLEDLGWADWVLSPREVQVTMCIGACPSQFRAANMHAQIKTSLHRLKPDTVPAPCCVPASYNPMVLIQKTDTGVSLQTYDDLLAKDCHCI", 100),
]

Moving on to the next binder.
# pERK Emax (%) lookup, item (SEPATSGSETPG)2-MIC-1-Δ1-3(M57L) (ligand) SEPATSGSETPGSEPATSGSETPGGDHCPLGPGRCCRLHTVRASLEDLGWADWVLSPREVQVTMCIGACPSQFRAANLHAQIKTSLHRLKPDTVPAPCCVPASYNPMVLIQKTDTGVSLQTYDDLLAKDCHCI
100

The reported measurements were obtained from patent US12006344.
